# Tested on: HeLa cells
# ASSAY: Cytotoxicity assay (MTT assay) on HeLa cells
# TEST_CONTEXT: 0.1 μg/ml, 48 hrs
I'd appreciate it if you could supply HeLa Cell Survival Rate values for the items below.
Give bare numbers, in %.

For orientation, consider the following solved cases.
• CC(C)[C@]12O[C@H]1[C@@H]1O[C@]13[C@]1(O[C@H]1C[C@H]1C4=C(CC[C@@]13C)C(=O)OC4)[C@@H]2O [Compound B, triptolide] = 14
• O=C(O)[C@H]1O[C@@H](Oc2cc3oc(-c4ccccc4)cc(=O)c3c(O)c2O)[C@H](O)[C@@H](O)[C@@H]1O = 94
• COc1ccc2cc3[n+](cc2c1OC)CCc1cc2c(cc1-3)OCO2.[Cl-] [Compound H, berberine hydrochloride] = 98

Shift focus to the following entry.
Q: Value lookup for HeLa Cell Survival Rate; key = `Cc1cc2c(C(C)C)c(O)c(O)c(C=O)c2c(O)c1-c1c(C)cc2c(C(C)C)c(O)c(O)c(C=O)c2c1O`
Ans: 103

Where do these numbers come from? They come from patent US20090137661A1.
